system: Stenotrophomonas maltophilia; assay: Antimicrobial activity against Stenotrophomonas maltophilia incubated for 16 to 18 hrs by broth dilution assay; assay type: functional; details: time 16-18 hrs
Entries annotated with measured MIC

| compound | targetDesc | MIC |
| --- | --- | --- |
| CCCCCCCCCCCC[n+]1ccc(-c2cc[n+](CC3=C(C(=O)[O-])N4C(=O)[C@@H](NC(=O)Cc5ccccc5)[C@H]4SC3)cc2)cc1.O=C([O-])C(F)(F)F | Stenotrophomonas maltophilia | > 128 µg/mL |

// returns reported MIC for input CCCCCC[n+]1ccc(-c2cc[n+](CC3=C(C(=O)[O-])N4C(=O)[C@@H](NC(=O)Cc5ccccc5)[C@H]4SC3)cc2)cc1.O=C([O-])C(F)(F)F 16 µg/mL

Note, next up: CCCCCCCCCCCCCCNC(=O)c1cc[n+](CC2=C(C(=O)O)N3C(=O)[C@@H](NC(=O)Cc4ccccc4)[C@H]3SC2)cc1.[I-] > 128 µg/mL
